Reported Inhibition of binding (%) values for the following binders.
Target: T1, thyroid stimulating hormone receptor (full length human TSHR) (human, UniProt P16473 22-764)
T1 construct: Full length TSHR coated onto plastic tubes (TSHR coated tubes, as in WO2004/050708A2); also called TSH receptor
Experiment: competitor ^125I-K1-70 IgG, TSHR coated tubes; 30 µg/mL in HBD
Procedure: Binding inhibition assays were carried out using TSHR coated tubes as described in WO2004/050708A2. […] After aspiration, the tubes were washed and 100 μL of ¹²⁵I-labelled protein (5×10⁴ cpm) added and incubated for 1 hour at room temperature with shaking. The tubes were then aspirated, washed and counted in a gamma counter. Inhibition of labelled protein binding was calculated as 100×[1−(cpm bound in the presence of test material/cpm bound in the presence of control material)].
measure name: Inhibition of binding (%)

binder="K1-70 Fab (Fab, V domains shown) VH: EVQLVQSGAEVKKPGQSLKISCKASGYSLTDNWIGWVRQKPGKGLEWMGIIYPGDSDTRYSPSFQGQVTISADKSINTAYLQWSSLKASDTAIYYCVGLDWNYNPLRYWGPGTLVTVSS VL: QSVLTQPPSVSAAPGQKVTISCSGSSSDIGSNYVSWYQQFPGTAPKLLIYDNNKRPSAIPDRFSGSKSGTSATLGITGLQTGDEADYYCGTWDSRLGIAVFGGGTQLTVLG" measure_name="Inhibition of binding (%)" reading_unit=% result_value=91
binder="K1-18 IgG (antibody, V domains shown, Human IgG1 kappa purified from hetero-hybridoma supernatant; it is not part of the secreted protein; also called human monoclonal TSHR autoantibody K1-18 (stimulating)) VH: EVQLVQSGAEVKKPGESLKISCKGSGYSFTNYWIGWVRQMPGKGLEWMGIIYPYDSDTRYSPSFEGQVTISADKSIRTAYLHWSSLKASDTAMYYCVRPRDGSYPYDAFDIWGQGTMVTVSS VL: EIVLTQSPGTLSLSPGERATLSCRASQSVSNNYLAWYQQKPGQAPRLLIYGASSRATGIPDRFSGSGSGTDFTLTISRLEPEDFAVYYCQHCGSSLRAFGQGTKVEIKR" measure_name="Inhibition of binding (%)" reading_unit=% result_value=92.2
binder="K1-18 Fab (Fab, V domains shown) VH: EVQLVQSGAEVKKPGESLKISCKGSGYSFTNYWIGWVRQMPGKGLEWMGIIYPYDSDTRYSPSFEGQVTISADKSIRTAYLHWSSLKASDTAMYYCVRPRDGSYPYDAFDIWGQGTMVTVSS VL: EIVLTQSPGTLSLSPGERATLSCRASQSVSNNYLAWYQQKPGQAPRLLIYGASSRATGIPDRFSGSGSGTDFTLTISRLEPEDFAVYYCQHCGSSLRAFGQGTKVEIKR" measure_name="Inhibition of binding (%)" reading_unit=% result_value=83.2
binder="K1-70 IgG (antibody, V domains shown, Human IgG1 lambda purified from hetero-hybridoma supernatant) VH: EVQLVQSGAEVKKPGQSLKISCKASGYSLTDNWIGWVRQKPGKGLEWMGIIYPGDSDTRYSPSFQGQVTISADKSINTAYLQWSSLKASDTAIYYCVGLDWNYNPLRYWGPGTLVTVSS VL: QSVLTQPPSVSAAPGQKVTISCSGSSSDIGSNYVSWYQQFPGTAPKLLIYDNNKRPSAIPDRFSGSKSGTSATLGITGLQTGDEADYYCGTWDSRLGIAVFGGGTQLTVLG" measure_name="Inhibition of binding (%)" reading_unit=% result_value=94.3
